# system: T1, human IL-12 (human, UniProt P29459 23-219; P29460 23-328)
# T1 construct: recombinant human IL-12 heterodimer (p35/p40, disulfide-linked); also called hIL-12; rhIL-12
# T1 sequence (looked up) 1: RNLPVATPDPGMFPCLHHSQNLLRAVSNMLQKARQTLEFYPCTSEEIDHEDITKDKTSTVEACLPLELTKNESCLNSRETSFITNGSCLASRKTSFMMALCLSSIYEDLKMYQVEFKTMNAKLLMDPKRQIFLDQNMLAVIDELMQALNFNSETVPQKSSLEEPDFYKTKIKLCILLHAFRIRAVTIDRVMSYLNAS
# T1 sequence (looked up) 2: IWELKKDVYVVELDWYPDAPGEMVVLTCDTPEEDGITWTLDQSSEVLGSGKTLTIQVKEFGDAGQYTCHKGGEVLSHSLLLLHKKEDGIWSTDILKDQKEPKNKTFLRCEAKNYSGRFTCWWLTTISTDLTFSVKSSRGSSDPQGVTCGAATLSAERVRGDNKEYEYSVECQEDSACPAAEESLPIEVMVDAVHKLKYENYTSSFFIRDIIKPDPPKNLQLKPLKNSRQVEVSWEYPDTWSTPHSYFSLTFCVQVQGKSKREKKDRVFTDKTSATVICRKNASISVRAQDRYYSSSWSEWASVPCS
# run-description: SPR (BIAcore), IL-12 chip
What koff was measured for each of the following?
Numbers only, in s⁻¹.

binder	koff [s⁻¹]
B2 (scFv, V domains shown, scFv) VH: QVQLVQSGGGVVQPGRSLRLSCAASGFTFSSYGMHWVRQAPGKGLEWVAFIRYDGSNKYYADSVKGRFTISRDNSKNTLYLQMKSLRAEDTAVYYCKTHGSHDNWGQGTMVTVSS VL: SYVLTQPPSVSGTPGQRVTISCSGGRSNIGSNTVKWYQQLPGTAPKLLIYGNDQRPSGVPDRFSGSKSGTSASLAITGVQAEDEADYYCQSYDRGRPRHALFGTGTKVTVL	0.00361

As a next step, examine the binder that follows.
Assign koff to the following record: B7 (scFv, V domains shown, scFv) VH: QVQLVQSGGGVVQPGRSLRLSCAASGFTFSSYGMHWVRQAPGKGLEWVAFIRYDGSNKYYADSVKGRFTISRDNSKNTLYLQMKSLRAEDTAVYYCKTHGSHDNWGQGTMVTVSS VL: SYVLTQPPSVSGTPGQRVTISCSGGRSNIGSNTVKWYQQLPGTAPKLLIYGNDQRPSGVPDRFSGSKSGTSASLAITGVQAEDEADYYCQSYDRGDSNHDLFGTGTKVTVL
0.00545

Reference source for all entries: patent US20150037348A1
